Biological target: human Cot catalytic domain (30-397 amino acids) (Homo sapiens)
Construct: Purified recombinant human Cot catalytic domain (30-397 amino acids) was purchased from Cama Biosciences; purchased Cama Biosciences (so in the source)
Sequence (P41279 30-397): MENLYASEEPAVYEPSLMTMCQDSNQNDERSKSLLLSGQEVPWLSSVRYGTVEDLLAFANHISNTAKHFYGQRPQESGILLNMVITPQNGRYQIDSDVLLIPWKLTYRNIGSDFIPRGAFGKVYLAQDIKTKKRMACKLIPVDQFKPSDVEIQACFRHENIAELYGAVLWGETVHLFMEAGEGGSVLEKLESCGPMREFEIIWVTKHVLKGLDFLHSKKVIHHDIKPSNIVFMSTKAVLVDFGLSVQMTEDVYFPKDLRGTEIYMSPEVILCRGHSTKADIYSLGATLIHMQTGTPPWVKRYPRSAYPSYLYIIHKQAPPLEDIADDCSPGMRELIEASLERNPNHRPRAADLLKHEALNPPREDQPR
Assay: High Throughput Cot Biochemical Assay (KinEASE TR-FRET)
Conditions: Cot KinEASE TR-FRET (HTRF) biochemical assay, 400 μM ATP; read-out: IC50 HTRF
METRIC: IC50

# count of solved cases: 3
{"CPD_SMILES": "[2H][C@](Nc1cc(Cl)c2ncc(C#N)c(NC3(C)CCC3)c2c1)(c1ccc(F)cc1)c1cn(C2CC2)nn1", "IC50": "534 nM"}
{"CPD_SMILES": "[2H][C@@](Nc1cc(C(C)=O)c2ncc(C#N)c(NCC(C)(C)C)c2c1)(c1cn(C2CC2)nn1)c1ccccc1Cl", "IC50": "13 nM"}
{"CPD_SMILES": "CC[C@@H](Nc1c(C#N)cnc2c(Cl)cc(N[C@@H](c3ccc(F)cc3)c3cn(-c4cccnc4)nn3)cc12)c1ccccc1", "IC50": "17 nM"}

Could you now consider this next compound?
Sample "[2H][C@](Nc1cc(Cl)c2ncc(C#N)c(NC[Si](C)(C)C)c2c1)(c1ccc(F)cc1)c1cn(C2CC2)nn1" ; IC50 observed: 10 nM
